Test system: Ebola virus - Zaire (1995)
Assay: Binding affinity to recombinant Ebola virus Zaire Mayinga-76 Envelope glycoprotein assessed as change in melting temperature up to 500 uM by SYPRO-dye based thermal shift assay
The source made the active and inactive calls. The rule behind the calls is not given here.
Would you mind answering with one of these outcomes? 1 for active, -1 for inactive

Prompt: Dear colleague, could you share the recorded outcome for O=C(/C=C/C1=Cc2ccccc2OC1)c1ccc(O)cc1 when you have a moment?
Completion: -1

Prompt: Dear colleague, could you share the recorded outcome for Cc1[nH]nc(-c2ccc(OCCN3CCC(C(N)=O)CC3)cc2O)c1-c1ccc(Cl)cc1 when you have a moment?
Completion: 1

Prompt: Dear colleague, could you share the recorded outcome for O=C(/C=C/c1cc(Br)cc2c1OCOC2)c1cc(F)ccc1O when you have a moment?
Completion: -1

Prompt: Dear colleague, could you share the recorded outcome for N#Cc1cc(N)ccc1Sc1cccc(C(F)(F)F)c1 when you have a moment?
Completion: -1

Prompt: Dear colleague, could you share the recorded outcome for NC(=O)C1CCN(CCOc2ccc(-c3n[nH]cc3-c3ccccc3)c(O)c2)CC1 when you have a moment?
Completion: 1

Prompt: Dear colleague, could you share the recorded outcome for Nc1ccc(SSc2ccc(N)cc2)cc1 when you have a moment?
Completion: -1

Prompt: Dear colleague, could you share the recorded outcome for COc1ccc(CC(=O)c2c(C)cc(O)cc2O)cc1 when you have a moment?
Completion: -1
